experiment: TBB/TBPH metabolism in human liver microsomes; assay type: in vitro ADME; settings: read-out: Km for TBBA formation in HLM; Michaelis-Menten model; 10-min incubations, 40 μg protein mL^-1, TBB 0.0078–31.1 μM
Reported Metric: Km

So what does the record say about Km for CCCCC(CC)COC(=O)c1cc(Br)c(Br)c(Br)c1Br (stereo not shown) [TBB, 2-ethylhexyl-2,3,4,5-tetrabromobenzoate] ?
~10 µM

====

assay: TBB/TBPH metabolism in human liver microsomes; type: in vitro ADME; details: both, human, pH 7.4, Km for TBBA formation in HLM, Michaelis-Menten model; 10-min incubations, 40 μg protein mL^-1, TBB 0.0078–31.1 μM
Reported Metric: Km at 10 min
Remember to put the unit after the number in your answer.

So what does the record say about Km at 10 min for CCCCC(CC)COC(=O)c1cc(Br)c(Br)c(Br)c1Br (stereo not shown) [TBB, 2-ethylhexyl-2,3,4,5-tetrabromobenzoate] ?
11.1 µM

Where these numbers come from: paper PMC3398233
